Data export: IC50 values recorded with BRD4 (His-Brd4(44-477)) (Homo sapiens (Human)).
endpoint.name: IC50 (nM)

compound | endpoint.name | reported.measurement
COc1ncc(-c2nc3c(n2C(C)C)C(c2ccc(Cl)cc2)N(c2cc(C)c4onc(C)c4c2)C3=O)c(OC)n1 (stereo not drawn) | IC50 | 65.2
Cc1cc(N2C(=O)c3nc(-c4ncco4)n(C(C)C)c3C2c2ccc(Cl)cc2)cn2c(C)nnc12 (stereo not drawn) | IC50 | 37
CC(C)n1c(-c2ccccn2)nc2c1C(c1ccc(Cl)cc1)N(c1ccc(=O)n(C)c1)C2=O (stereo not drawn) | IC50 | 630
COc1ncccc1-c1nc2c([nH]1)C(c1ccc(Cl)cc1)N(c1cc(C)c3nnn(C)c3c1)C2=O (stereo not drawn) | IC50 | 23
CCn1c(-c2cccnc2OC)nc2c1C(=O)N(c1cc(C)c(=O)n(C)c1)[C@@H]2c1ccc(Cl)cc1 | IC50 | 16
CC(C)n1c(-c2cnoc2)nc2c1C(c1ccc(Cl)cc1)N(c1ccc(=O)n(C)c1)C2=O (stereo not drawn) | IC50 | 220
COc1ccc(-c2nc3c(n2C(C)C)C(c2ccc(Cl)cc2)N(c2cc(C)c4onc(C)c4c2)C3=O)cn1 (stereo not drawn) | IC50 | 21
CCN1CC=C(c2nc3c(n2C(C)C)C(c2ccc(Cl)cc2)N(c2cc(C)c4nnc(C)n4c2)C3=O)CC1 (stereo not drawn) | IC50 | 30
COc1ncccc1-c1nc2c(n1C(C)C)C(c1ccc(Cl)cc1)N(c1cc(C)c3nnc(C(F)F)n3n1)C2=O (stereo not drawn) | IC50 | 23

====

Reported values of IC50 for individual entries
- target.under.test: CREBBP bromodomain (His-CREBBP(1081-1197)) (Homo sapiens (Human))
- Sequence (Q92793 1081-1197): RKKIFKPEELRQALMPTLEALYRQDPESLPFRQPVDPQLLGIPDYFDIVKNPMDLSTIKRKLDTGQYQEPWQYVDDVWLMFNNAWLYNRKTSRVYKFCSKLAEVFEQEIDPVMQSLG
- assay.summary: AlphaScreen in-vitro binding assay for CREBBP
- assay.conditions: single determination or n ≧ 2 independent determinations, read-out: Biochemical IC50 CREBBP

molecule | qualifier | IC50 (µM)
COc1cc(C(F)(F)F)ccc1-c1nc2c([nH]1)C(c1ccc(Cl)cc1)N(c1cc(C)c3nnc(C)n3c1)C2=O (stereo not drawn) [Example 136] | = | 2.6
Cc1cc(N2C(=O)c3nc(C4CCOCC4)n(C(C)C)c3[C@H]2c2ccc(Cl)cc2)cc2c1nnn2C [Example 82] | = | 1.07
COc1ncc(-c2nc3c(n2C(C)C)C(c2ccc(Cl)cc2)N(c2cc(C)c4nnc(C(F)F)n4c2)C3=O)c(OC)n1 (stereo not drawn) [Example 143] | > | 37
Cc1cc(N2C(=O)c3nc(C4=CCOCC4)[nH]c3[C@H]2c2ccc(Cl)cc2)nc2c1nnn2C [Example 165] | = | 14.8
COc1ncc(-c2nc3c(n2C)C(c2ccc(Cl)cc2)N(c2cc(OC)c4nnc(C)n4c2)C3=O)c(OC)n1 (stereo not drawn) [Example 54] | > | 37
COc1ncccc1-c1nc2c([nH]1)[C@@H](c1ccc(Cl)cc1)N(c1cc(C)c3nnc(C(F)F)n3c1)C2=O [Example 153] | = | 28.9
COc1cc(C(F)(F)F)ccc1-c1nc2c(n1C(C)C)C(c1ccc(Cl)cc1)N(c1cc(C)c3nnc(C(F)F)n3c1)C2=O (stereo not drawn) [Example 144] | > | 37
COc1ncccc1-c1nc2c([nH]1)C(c1ccc(Cl)cc1)N(c1cc(C)c3nnc(C(F)F)n3c1)C2=O (stereo not drawn) [Example 140] | > | 37
COc1ccc(-c2nc3c([nH]2)[C@@H](c2ccc(Cl)cc2)N(c2cc(C)c4nnc(C)n4c2)C3=O)cn1 [Example 129] | > | 37
COc1ccc(-c2nc3c([nH]2)[C@@H](c2ccc(Cl)cc2)N(c2cc(OC)c4nnc(C)n4c2)C3=O)cn1 [Example 126] | = | 25.9
COc1ccc(-c2nc3c([nH]2)C(c2ccc(Cl)cc2)N(c2cc(C)c(=O)n(C)c2)C3=O)cn1 (stereo not drawn) [Example 4] | = | 1.4
Cc1cc(N2C(=O)c3nc(C4=CCOCC4)n(C(C)C)c3C2c2ccc(Cl)cc2)nn2c(C)nnc12 (stereo not drawn) [Example 100] | > | 37
Cc1cc(N2C(=O)c3nc(C4=CCOCC4)[nH]c3C2c2ccc(Cl)cc2)nc2c1nnn2C (stereo not drawn) [Example 162] | > | 37
Cc1cc(N2C(=O)c3nc(C4CCN(C)CC4)n(C(C)C)c3C2c2ccc(Cl)cc2)cn2c(C)nnc12 (stereo not drawn) [Example 98] | = | 2.9
Cc1cc(N2C(=O)c3nc(C4=CCOCC4)n(C(C)C)c3C2c2ccc(Cl)cc2)nn2c(C(F)F)nnc12 (stereo not drawn) [Example 161] | > | 37
